Reference source for all entries: the METLIN SMRT retention time set (Domingo-Almenara et al. 2019)

Test Method Notes: gradient 5% acetonitrile 3 min, to 50% in 2 min, to 85% in 15 min, held 3 min, 100 µL/min
Run Parameters: column: Zorbax Extend-C18 2.1 x 50 mm; eluents: water / acetonitrile, 0.1% formic acid
// returns not met unless RP-LC retention time is strictly below 800 s, in which case met

These solved cases illustrate the format of a correct answer.
>  <Molecule>
O=S(=O)(c1ccccc1Cl)N1CCN(c2ccc(Nc3ccccn3)nn2)CC1

>  <Group>
met

$$$$
>  <Molecule>
CSc1ccc(NC(=O)N2CCC(c3cc(N)on3)CC2)cc1

>  <Group>
met

$$$$
>  <Molecule>
CCCn1ccc2sc(C)c(C(=O)NCc3ccc(OC)cc3)c2c1=O

>  <Group>
not met

$$$$
>  <Molecule>
Cn1nc(-c2ccccc2)cc1C(=O)N1CCC(C(=O)Nc2nccs2)CC1

>  <Group>
met

$$$$
>  <Molecule>
CCn1cc(S(=O)(=O)Nc2ccc(OC)c(Cl)c2)c2cccnc21

>  <Group>
not met

$$$$

Task: Would you kindly verify if RP-LC retention time of COC(=O)c1cn(Cc2cccc(C)c2)c2nc(C)ccc2c1=O is strictly less than 800 s?
Result: not met

Task: I wonder whether CCCNC(=O)c1ncn2c1C(=O)N(CCC)C(C)(C(=O)NCc1ccc(C)cc1)C2 (stereo not drawn) has RP-LC retention time below 800 s. Can you tell?
Result: met

Task: Regarding O=C(NCc1[nH]nc2ccccc12)c1cccc2[nH]ccc12 , kindly confirm whether its RP-LC retention time is beneath 800 s.
Result: met

Task: Could you please tell me whether RP-LC retention time recorded for Cc1ccc(C)c(NC(=O)C(=O)NCC(c2ccc3c(c2)OCO3)N2CCN(C)CC2)c1 (stereo not drawn) is less than 800 s?
Result: met

Task: is_below(RP-LC retention time, 800 s) for O=C(O)c1nnn(-c2cccc(Cl)c2)c1-c1ccncc1 ?
Result: met

Task: I'd appreciate it if you could check whether COc1ccc(C2C(C(=O)NC(C)C)c3ccccc3C(=O)N2C)cc1 (stereo not drawn) has RP-LC retention time smaller than 800 s.
Result: met

Task: Does this molecule meet the criterion RP-LC retention time < 800 s? Cc1cc(N2CCN(S(=O)(=O)c3cc(F)ccc3F)CC2)nc(N2CCOCC2)n1
Result: met

---

Recorded RP-LC retention time by entry
Test Method Notes: gradient 5% acetonitrile 3 min, to 50% in 2 min, to 85% in 15 min, held 3 min, 100 µL/min
Run Parameters: column: Zorbax Extend-C18 2.1 x 50 mm; eluents: water / acetonitrile, 0.1% formic acid

Consider the following illustrative entries.
>  <Molecule>
Cc1nn2c(S(=O)(=O)N3CCOCC3)c(C)nc2s1

>  <Observed Result>
656 s

$$$$
>  <Molecule>
CCc1noc(-c2cc(=O)n(CC(=O)Nc3ccccc3OC)c3ccccc23)n1

>  <Observed Result>
962 s

$$$$
>  <Molecule>
O=C(NCCc1c[nH]c2ccc(Cl)cc12)c1cncc(Br)c1

>  <Observed Result>
851 s

$$$$
>  <Molecule>
CC(C)c1ccc(S(=O)(=O)c2cnc(N3CCC(C(N)=O)(N4CCCCC4)CC3)nc2N)cc1

>  <Observed Result>
677 s

$$$$

Task: Entry under review: Cc1ccc(CN2CCN(C(=O)c3cccc4[nH]cc(CN5CCSCC5)c34)CC2)cc1 . Reported RP-LC retention time?
Result: 593 s

Task: Quick one: RP-LC retention time for CCOc1cccc(-c2noc(Cc3nnc(-c4cccc(OC)c4)o3)n2)c1 ?
Result: 1080 s

Task: Quick check: RP-LC retention time of O=C(N[C@@H]1CN(Cc2ccc(C(F)(F)F)cc2)CC[C@@H]1CO)C1CC1 ?
Result: 614 s

Task: Dear colleague, I am looking for the recorded RP-LC retention time of the following molecule: CCc1noc(NC(C)=O)c1-c1ccc(OC)c(S(=O)(=O)Nc2ccc(F)cc2C)c1
Result: 796 s

Task: So what's the measured RP-LC retention time for this one? Clc1ccc(-c2nc3ccccn3c2Nc2ccc3c(c2)OCO3)cc1
Result: 727 s

Task: Look up RP-LC retention time: Cc1ccc(NC(=O)N2CCC(n3c(-c4ccco4)nc4cccnc43)C2)cc1F (configuration not stated)
Result: 815 s
